reported_endpoint: melting point (°C)

Answered cases to consult:
CNc1nc2ccc(CN(CCO)c3cccc(C)c3)cc2n1Cc1nc(C)ccc1O [Compound 195] :: 204
Cc1cccc(N(CCN)Cc2ccc3nc(N)n(Cc4nc(C)ccc4O)c3c2)c1.Cl [Compound 131] :: 200
Cc1ccc(O)c(Cn2c(N)nc3ccc(CNc4cccc(OC(F)(F)F)c4)cc32)n1 [Compound 4] :: 156
Cc1cccc(NCc2cc(C)c3nc(N)n(Cc4nc(C)ccc4O)c3c2)c1 [Compound 194] :: 252
Cc1ccc(O)c(Cn2c(N)nc3ccc(CN(CCC(N)=O)c4cccc(Br)c4)cc32)n1 [Compound 137] :: 245

1 = Cc1cccc(N(CCCO)Cc2ccc3nc(N)n(Cc4cccc5cccnc45)c3c2)c1 [Compound 205]
2 = Cc1ccc(CCCO)c(NCc2ccc3nc(N)n(Cc4nc(C)ccc4OCc4ccccc4)c3c2)c1 [Compound 128]
[Q] Lab notebook, comparison: 1 versus 2 , higher melting point goes to which? // return label of chosen record
[A] 1
(1: 191 °C, 2: 129 °C)
